experimental.target: P2X7 receptor (Homo sapiens (Human), UniProt Q99572)
Sequence (Q99572 whole entry): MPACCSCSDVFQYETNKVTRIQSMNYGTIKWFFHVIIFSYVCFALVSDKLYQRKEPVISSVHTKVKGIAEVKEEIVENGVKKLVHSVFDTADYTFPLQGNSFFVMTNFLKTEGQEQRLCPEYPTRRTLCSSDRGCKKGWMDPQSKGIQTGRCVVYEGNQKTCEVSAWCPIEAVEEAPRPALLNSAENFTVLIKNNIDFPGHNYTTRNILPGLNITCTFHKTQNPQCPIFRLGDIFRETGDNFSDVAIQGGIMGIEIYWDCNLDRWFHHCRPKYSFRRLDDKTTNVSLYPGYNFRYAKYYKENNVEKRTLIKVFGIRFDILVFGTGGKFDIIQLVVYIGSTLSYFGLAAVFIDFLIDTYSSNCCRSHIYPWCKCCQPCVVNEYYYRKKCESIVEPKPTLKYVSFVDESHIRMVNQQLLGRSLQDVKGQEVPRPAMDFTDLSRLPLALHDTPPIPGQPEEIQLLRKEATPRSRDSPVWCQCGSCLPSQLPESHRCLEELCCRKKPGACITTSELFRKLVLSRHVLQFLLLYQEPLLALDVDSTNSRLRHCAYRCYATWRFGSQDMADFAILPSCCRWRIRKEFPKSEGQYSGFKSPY
assay.text: P2X7 FLIPR assay (BzATP-stimulated calcium fluorescence, antagonist IC50)
Assay type: cell-based
Give pIC50 for every item shown.
Numbers only, as −log10 of the molar value.

Examples with answers:
Cc1cccc(C(=O)NCC2(c3ccc(F)nc3)CCC(F)(F)CC2)c1F : 7.11
Cc1ccc(C(CNC(=O)c2ccccc2C)CC(C)C)cn1 (stereo not shown) : 7.54
O=C(NCC(c1ccc(F)cc1)c1cnc(C(F)(F)F)nc1)c1c(F)cccc1Cl (single isomer, unassigned; (+)) [(+)2-chloro-6-fluoro-N-[2-(4-fluorophenyl)-2-[2-(trifluorome] : 8.17

--- query ---
**Query** // map O=C(NCC(CC1(C(F)F)CC1)c1ccc(C2CC2)nc1)c1cccc(Cl)c1Cl (stereo not shown) to recorded pIC50 (system: P2X7 receptor (Homo sapiens (Human), UniProt Q99572))
**Result** 9.12
